Target: Xanthine oxidase (Homo sapiens (Human))
Sequence (P47989 whole entry, species assumed): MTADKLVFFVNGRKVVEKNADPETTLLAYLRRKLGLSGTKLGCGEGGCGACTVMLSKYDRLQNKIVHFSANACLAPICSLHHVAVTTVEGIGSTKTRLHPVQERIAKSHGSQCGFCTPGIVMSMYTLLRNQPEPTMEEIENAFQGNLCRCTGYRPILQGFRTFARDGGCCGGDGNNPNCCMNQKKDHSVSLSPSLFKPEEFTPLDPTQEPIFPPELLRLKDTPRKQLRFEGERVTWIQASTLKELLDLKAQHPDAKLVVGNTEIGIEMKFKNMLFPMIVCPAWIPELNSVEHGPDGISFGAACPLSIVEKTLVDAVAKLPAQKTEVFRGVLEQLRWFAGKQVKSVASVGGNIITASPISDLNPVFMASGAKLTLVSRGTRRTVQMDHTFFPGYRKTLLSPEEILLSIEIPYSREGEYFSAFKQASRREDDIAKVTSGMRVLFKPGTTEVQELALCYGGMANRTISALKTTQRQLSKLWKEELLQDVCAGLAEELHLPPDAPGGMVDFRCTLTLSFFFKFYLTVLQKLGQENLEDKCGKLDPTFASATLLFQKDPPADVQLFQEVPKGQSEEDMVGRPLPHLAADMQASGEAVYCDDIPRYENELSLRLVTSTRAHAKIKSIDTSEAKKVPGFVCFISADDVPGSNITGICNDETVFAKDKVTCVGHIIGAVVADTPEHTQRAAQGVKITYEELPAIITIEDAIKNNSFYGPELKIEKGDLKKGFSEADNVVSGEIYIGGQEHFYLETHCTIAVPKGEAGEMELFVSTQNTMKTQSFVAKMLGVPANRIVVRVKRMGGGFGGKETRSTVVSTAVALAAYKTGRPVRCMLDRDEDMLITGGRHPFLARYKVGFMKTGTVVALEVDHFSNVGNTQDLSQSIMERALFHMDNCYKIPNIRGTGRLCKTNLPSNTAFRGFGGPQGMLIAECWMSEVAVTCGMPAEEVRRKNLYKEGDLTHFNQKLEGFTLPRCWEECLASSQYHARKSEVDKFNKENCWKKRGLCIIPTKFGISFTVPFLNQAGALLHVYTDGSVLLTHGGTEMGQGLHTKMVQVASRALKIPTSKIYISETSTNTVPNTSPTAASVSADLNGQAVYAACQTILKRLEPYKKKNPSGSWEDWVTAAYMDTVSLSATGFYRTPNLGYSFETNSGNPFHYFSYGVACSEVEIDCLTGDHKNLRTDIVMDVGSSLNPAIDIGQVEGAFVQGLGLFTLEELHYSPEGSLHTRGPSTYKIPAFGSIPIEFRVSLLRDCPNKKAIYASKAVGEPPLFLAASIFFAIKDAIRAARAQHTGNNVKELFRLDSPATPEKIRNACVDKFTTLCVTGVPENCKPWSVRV
Assay: Fluorescence-based xanthine oxidase activity assay
Assay type: biochemical
Conditions: unit nM; read-out: Xanthine Oxidase IC50
EXPERIMENTAL READOUT: IC50

Solved cases below.
SUBSTANCE SMILES | RESULT
CC(C)Sc1nc(O)c(C(=O)Nc2ccc(-c3c[nH]nn3)cc2)c(=O)[nH]1 | < 20 nM
CCSc1nc(O)c(C(=O)Nc2ccc(-c3c[nH]nn3)cc2)c(=O)[nH]1 | < 20 nM
O=C(Nc1ccc(-c2c[nH]nn2)cc1)c1c(O)nc(SC(F)(F)F)[nH]c1=O | > 300000 nM

We next turn to a different compound, shown below.
Req: Can you share its IC50? I mean this compound: `CSc1nc(O)c(C(=O)Nc2ccc(-c3c[nH]nn3)c(C(F)(F)F)c2)c(=O)[nH]1`
Resp: > 10000 nM
